Source: paper PMC12040169

Below, each entry is listed alongside its reported viability at 28.5 h, 10 µM.
assayExplanation: in vitro
measurementConditions: human, hela cells, % viability
Report the figure along with its unit, number first.

Worked set:
# input Give me measured viability at 28.5 h, 10 µM, please, for this compound: O=C(NC(c1ccccc1)c1ccccc1)N1CCCC(CO)C1 (stereo not shown) [CBK156036]
# output 95.4%

# input Give me measured viability at 28.5 h, 10 µM, please, for this compound: O=C(c1ccc2[nH]ccc2c1)N1CCC2(CCN(Cc3ccccc3)C2)C1 (stereo not shown) [CBK137146]
# output 98.5%

# input Give me measured viability at 28.5 h, 10 µM, please, for this compound: Cc1n[nH]c(C)c1Sc1ccccc1/N=C/c1ccc([N+](=O)[O-])cc1 [CBK262045]
# output 87.4%

# input Give me measured viability at 28.5 h, 10 µM, please, for this compound: Cc1nc2c(c(=O)[nH]1)CC[C@@H]1CN(C(=O)Cc3ccsc3)C[C@H]21 [CBK284411]
# output 83.5%

# input Give me measured viability at 28.5 h, 10 µM, please, for this compound: O=C(O)c1cccc(Sc2ncccc2C(F)(F)F)c1 [CBK093589]
# output 103%

Next:
# input Give me measured viability at 28.5 h, 10 µM, please, for this compound: Cc1cc(C)n(CC(C)CNC(=O)NCCN2CCCCCC2=O)n1 (stereo not shown) [CBK305389]
# output 92%

# input Give me measured viability at 28.5 h, 10 µM, please, for this compound: CN(C)CCNc1c(N)c(=O)oc2ccccc12 [CBK261472]
# output 89.7%

# input Give me measured viability at 28.5 h, 10 µM, please, for this compound: O=C(NCCCn1ccnc1)c1ccccc1C(=O)c1ccccc1 [CBK262954]
# output 93.2%

# input Give me measured viability at 28.5 h, 10 µM, please, for this compound: Cc1ccc(C(=O)N2CN(C(=O)CN3CCOCC3)CC(C)(C)C2)cc1 [CBK039190]
# output 105%

# input Give me measured viability at 28.5 h, 10 µM, please, for this compound: NC(=O)c1c(NC(=S)NC(NC(=O)c2ccccc2)C(Cl)(Cl)Cl)sc2c1CCCC2 (stereo not shown) [CBK261048]
# output 90.6%

# input Give me measured viability at 28.5 h, 10 µM, please, for this compound: NC(=O)CSc1nnc(-c2ccc(Cl)cc2)o1 [CBK068597]
# output 105%

# input Give me measured viability at 28.5 h, 10 µM, please, for this compound: O=C(NCc1cccnc1)N1CCN(CCc2ccccc2)CC1 [CBK158906]
# output 93.7%

# input Give me measured viability at 28.5 h, 10 µM, please, for this compound: CCC(C(=O)N1CCc2nc(C)[nH]c(=O)c2C1)c1ccccc1 (stereo not shown) [CBK284618]
# output 91.6%

# input Give me measured viability at 28.5 h, 10 µM, please, for this compound: O=c1[nH]c(=O)n([C@H]2C[C@@H](O)[C@@H](CO)O2)cc1CO [CBK201332]
# output 94%

# input Give me measured viability at 28.5 h, 10 µM, please, for this compound: Nn1c(SCC(=O)Nc2cccc3ccccc23)nnc1-c1ccccc1Cl [CBK266080]
# output 97.7%

# input Give me measured viability at 28.5 h, 10 µM, please, for this compound: O=C1N(CCc2ccccc2)CC=CCC12CN(Cc1ccc3[nH]ccc3c1)CCO2 (stereo not shown) [CBK286130]
# output 105%

# input Give me measured viability at 28.5 h, 10 µM, please, for this compound: O=S(=O)(c1ccccc1)c1nc(-c2ccco2)oc1NCCCn1ccnc1 [CBK267670]
# output 87.1%

# input Give me measured viability at 28.5 h, 10 µM, please, for this compound: Cc1cccc(CN2CCC(N(C)Cc3nnc(C4CC4)n3C)C2)c1 (stereo not shown) [CBK305165]
# output 88.5%

# input Give me measured viability at 28.5 h, 10 µM, please, for this compound: COc1ccc2[nH]cc([C@@H]3CCC[C@H](NC(=O)C4CCCO4)C3)c2c1 (stereo partly shown) [CBK284699]
# output 105%
